I'd appreciate it if you could supply self-splicing fitness (ln) values for the items below.
assay: self-splicing fitness, log relative to wild type (ln ratio); higher = more splicing; Tetrahymena group I intron in knt gene, E. coli kanamycin selection, DiMSum; sequences stand for … in CUCUCU…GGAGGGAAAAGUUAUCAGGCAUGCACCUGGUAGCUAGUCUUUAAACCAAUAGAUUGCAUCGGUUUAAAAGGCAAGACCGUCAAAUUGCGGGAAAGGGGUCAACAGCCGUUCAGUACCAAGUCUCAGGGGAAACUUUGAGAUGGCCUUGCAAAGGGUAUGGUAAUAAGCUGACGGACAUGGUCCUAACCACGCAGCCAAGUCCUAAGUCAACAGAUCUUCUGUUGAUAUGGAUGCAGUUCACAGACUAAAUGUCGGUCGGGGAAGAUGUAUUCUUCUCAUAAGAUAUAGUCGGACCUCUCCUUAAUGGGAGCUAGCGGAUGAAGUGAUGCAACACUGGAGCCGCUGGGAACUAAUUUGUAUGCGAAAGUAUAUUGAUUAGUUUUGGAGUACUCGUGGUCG; settings: 37 °C;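 also: selection with 25 µg/mL kanamycin versus none on LB agar overnight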
Give bare numbers.

Examples from the recorded data:
# lookup: self-splicing fitness (ln) of `CUUAAGCAAUAUUACGUCCA`
-2.34

Return reported self-splicing fitness (ln); argument: `GACGAGCAAUAUUACGCGUA`
-1.95

Provide the reported self-splicing fitness (ln) of each entry below, same order.
1. CCUCAGCAAUAUUACGUUCG
2. UCGCAGCAAUAUUACGUAGG
3. UACAAGCAAUAUUACGUAAU
4. ACCAAGCAAUAUUACGGAGG

1: -0.795; 2: -0.377; 3: -0.0213; 4: -1.8

---

test: self-splicing fitness, log relative to wild type (ln ratio); higher = more splicing; Tetrahymena group I intron in knt gene, E. coli kanamycin selection, DiMSum; sequences stand for … in CUCUCU…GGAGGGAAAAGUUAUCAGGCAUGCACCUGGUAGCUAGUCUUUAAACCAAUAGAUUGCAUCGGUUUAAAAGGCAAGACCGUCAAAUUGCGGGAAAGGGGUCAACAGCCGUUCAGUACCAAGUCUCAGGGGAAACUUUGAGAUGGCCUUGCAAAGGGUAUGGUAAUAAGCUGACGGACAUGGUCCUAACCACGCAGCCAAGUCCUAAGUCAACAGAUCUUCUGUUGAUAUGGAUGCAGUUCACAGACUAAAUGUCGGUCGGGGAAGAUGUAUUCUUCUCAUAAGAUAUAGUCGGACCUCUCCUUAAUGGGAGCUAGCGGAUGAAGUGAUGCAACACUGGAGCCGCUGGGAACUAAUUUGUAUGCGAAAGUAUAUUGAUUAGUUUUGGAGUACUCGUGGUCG; conditions: 30 °C
Endpoint Name: self-splicing fitness (ln)

Batch of 2 sequences: report self-splicing fitness (ln) for each.
1. GUCUAGCAAUAUUACGGCUU
2. ACCAAGCAAUAUUACGAUUG

-0.982
-2.86

---

Give measured self-splicing fitness (ln) for each item. Keep answers brief.
assay: self-splicing fitness, log relative to wild type (ln ratio); higher = more splicing; Tetrahymena group I intron in knt gene, E. coli kanamycin selection, DiMSum; sequences stand for … in CUCUCU…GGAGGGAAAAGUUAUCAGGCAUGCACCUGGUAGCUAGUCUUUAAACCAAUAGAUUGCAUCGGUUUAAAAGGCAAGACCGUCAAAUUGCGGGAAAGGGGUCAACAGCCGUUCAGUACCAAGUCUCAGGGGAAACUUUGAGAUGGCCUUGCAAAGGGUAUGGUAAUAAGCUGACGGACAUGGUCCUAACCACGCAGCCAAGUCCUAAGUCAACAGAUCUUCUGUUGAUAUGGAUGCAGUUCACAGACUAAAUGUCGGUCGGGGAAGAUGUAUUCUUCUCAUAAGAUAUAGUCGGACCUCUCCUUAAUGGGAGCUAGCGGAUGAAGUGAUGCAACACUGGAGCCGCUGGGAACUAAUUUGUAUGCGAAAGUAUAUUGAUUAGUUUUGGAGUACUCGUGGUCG; conditions: 37 °C
Give bare numbers.

Recorded results for 8 sequences are shown here.
Requested read-out: self-splicing fitness (ln). Entry: `ACUGAGCAAUAUUACGACGG`
-0.161

Name the reported self-splicing fitness (ln) value associated with the sequence `UGGGAGCAAUAUUACGUAUC`
-2.56

Record request: self-splicing fitness (ln) value, item `UAAAAGCAAUAUUACGGAUC`
-1.81

What value of self-splicing fitness (ln) has been reported for the following sequence? `CAUCAGCAAUAUUACGUACU`
-1.65

Query: self-splicing fitness (ln); subject: `AAGAAGCAAUAUUACGUUGA`
-2.25

Which self-splicing fitness (ln) value is on record for `UCAGAGCAAUAUUACGACAU` ?
-2.6

Given the entry `AAGGAGCAAUAUUACGCUGC` , report its measured self-splicing fitness (ln).
-2.68

Which self-splicing fitness (ln) reading was recorded for the sequence `GGUUAGCAAUAUUACGGACU` ?
-1.31

Give self-splicing fitness (ln) for all sequences that follow.
1. AUUGAGCAAUAUUACGGUUG
2. AGUCAGCAAUAUUACGAGUU

1. -2.48
2. -0.799

List reported self-splicing fitness (ln) for each of these sequences:
1. GCAUAGCAAUAUUACGGACC
2. CACCAGCAAUAUUACGGUGC
3. ACAGAGCAAUAUUACGAUAU
4. UUUAAGCAAUAUUACGACUA
5. GAAAAGCAAUAUUACGCAUU
6. AUCAAGCAAUAUUACGGCGU
7. UAUUAGCAAUAUUACGUGGC

[-0.576, -1.81, -2.62, -0.0992, -0.376, 0.219, -1.84]

Below are 5 sequences. Give each one its self-splicing fitness (ln).
1. GCUUAGCAAUAUUACGGUUC
2. AGACAGCAAUAUUACGGCCA
3. CUCUAGCAAUAUUACGACAA
4. GUUCAGCAAUAUUACGAAUA
5. CCGGAGCAAUAUUACGGCAA

1: -0.185; 2: -0.142; 3: -2.35; 4: -0.181; 5: -2.48

---

assay: self-splicing fitness, log relative to wild type (ln ratio); higher = more splicing; Tetrahymena group I intron in knt gene, E. coli kanamycin selection, DiMSum; sequences stand for … in CUCUCU…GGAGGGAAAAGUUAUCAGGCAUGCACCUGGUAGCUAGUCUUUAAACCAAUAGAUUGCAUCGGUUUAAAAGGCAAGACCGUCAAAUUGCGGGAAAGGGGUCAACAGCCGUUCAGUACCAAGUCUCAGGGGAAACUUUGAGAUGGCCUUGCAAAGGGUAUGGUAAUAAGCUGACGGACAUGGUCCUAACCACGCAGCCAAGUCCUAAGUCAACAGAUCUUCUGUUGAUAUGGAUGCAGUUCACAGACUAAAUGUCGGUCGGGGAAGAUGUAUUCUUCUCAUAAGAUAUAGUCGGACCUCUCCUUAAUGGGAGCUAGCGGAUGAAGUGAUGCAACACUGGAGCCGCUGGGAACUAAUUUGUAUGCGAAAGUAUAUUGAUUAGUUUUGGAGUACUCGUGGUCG; conditions: 37 °C
Please provide measured self-splicing fitness (ln) for the entries that follow.
Numbers only.

Study these solved cases before continuing.
Quick check: self-splicing fitness (ln) of `CUCGAGCAAUAUUACGGGAU` ?
-1.93

Request the reported self-splicing fitness (ln) associated with `AGGGAGCAAUAUUACGUUUG`
-2.66

Give its self-splicing fitness (ln) value. Item: `AAUCAGCAAUAUUACGUUUG`
-1.94

New cases:
Quick one: self-splicing fitness (ln) of `GAAUAGCAAUAUUACGUGCC` ?
-0.104

---

assay: self-splicing fitness, log relative to wild type (ln ratio); higher = more splicing; Tetrahymena group I intron in knt gene, E. coli kanamycin selection, DiMSum; sequences stand for … in CUCUCU…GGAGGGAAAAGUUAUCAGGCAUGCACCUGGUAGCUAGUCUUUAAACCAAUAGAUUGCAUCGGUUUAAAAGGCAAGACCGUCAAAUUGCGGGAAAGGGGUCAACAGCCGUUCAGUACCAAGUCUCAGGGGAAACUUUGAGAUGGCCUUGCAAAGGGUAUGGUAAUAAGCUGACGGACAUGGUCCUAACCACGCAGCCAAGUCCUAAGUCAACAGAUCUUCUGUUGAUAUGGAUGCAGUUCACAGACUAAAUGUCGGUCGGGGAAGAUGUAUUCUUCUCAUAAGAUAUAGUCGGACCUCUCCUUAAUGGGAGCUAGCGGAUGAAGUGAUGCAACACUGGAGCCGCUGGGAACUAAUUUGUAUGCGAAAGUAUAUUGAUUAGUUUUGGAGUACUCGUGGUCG; settings: 30 °C
Endpoint Name: self-splicing fitness (ln)
Answers are plain numbers.

May I ask what self-splicing fitness (ln) has been recorded for `GCUCAGCAAUAUUACGUGCA` ?
-1.12

What measured self-splicing fitness (ln) goes with `GCAUAGCAAUAUUACGGCUC` ?
0.0416

Give me self-splicing fitness (ln) for each of these sequences, listed below.
1. CGGUAGCAAUAUUACGACUA
2. UCCCAGCAAUAUUACGAAAA
3. CAGGAGCAAUAUUACGCGGG
4. AGCUAGCAAUAUUACGACCA
5. CGAUAGCAAUAUUACGUACA
6. UAGAAGCAAUAUUACGAACA
7. AAAAAGCAAUAUUACGUCGA

-0.298
-2.38
-0.771
-0.512
-1.98
-0.322
-1.05

Provide the reported self-splicing fitness (ln) of each entry below, same order.
1. UUGGAGCAAUAUUACGGCGG
2. UGACAGCAAUAUUACGGGUU

1: -2.99; 2: -4.59

Batch request: self-splicing fitness (ln) for each of the following sequences.
1. GUAUAGCAAUAUUACGCGGG
2. CCGGAGCAAUAUUACGAAAU
3. AGGAAGCAAUAUUACGUUAU
4. AUCAAGCAAUAUUACGCGAA
5. GUGGAGCAAUAUUACGGCCU
6. UUGGAGCAAUAUUACGCCAG
7. UCAGAGCAAUAUUACGUCGA

[-3.7, -3.2, -3.44, -0.924, -1.74, -3.07, -1.11]

Could you tell me self-splicing fitness (ln) for each of these sequences? They are listed below.
1. AACCAGCAAUAUUACGGUGG
2. CGGAAGCAAUAUUACGACCC
3. GUGUAGCAAUAUUACGUCCG
4. UCUUAGCAAUAUUACGCCCG
5. ACGAAGCAAUAUUACGUUUG
6. AGGUAGCAAUAUUACGAAUU
7. CUGGAGCAAUAUUACGGUGU

1: -2.33; 2: -0.496; 3: -3.16; 4: -1.07; 5: -1.27; 6: -1.85; 7: -4.16

Value sought for every listed sequence: self-splicing fitness (ln).
1. AACAAGCAAUAUUACGGGAA
2. UUUUAGCAAUAUUACGUUUU
3. GCUAAGCAAUAUUACGGGGU
4. ACGUAGCAAUAUUACGCUGU
5. CCCAAGCAAUAUUACGUCCU
6. CGUAAGCAAUAUUACGACGG
7. UAGAAGCAAUAUUACGACUC

1: -1.57; 2: -3.49; 3: -2.06; 4: -2.65; 5: -3.99; 6: 0.0203; 7: -0.192

Here are 6 sequences. What values of self-splicing fitness (ln) were reported for them?
1. AAGUAGCAAUAUUACGUGCA
2. UAUUAGCAAUAUUACGCAAA
3. CCACAGCAAUAUUACGUAUC
4. AAGGAGCAAUAUUACGAAAU
5. CGAGAGCAAUAUUACGCGGU
6. CGCUAGCAAUAUUACGAAAA

1. -0.781
2. -1.67
3. -2.59
4. -2.26
5. -3.23
6. -1.65

Please state, for each entry, its recorded self-splicing fitness (ln).
1. CGUCAGCAAUAUUACGAGGC
2. CUAGAGCAAUAUUACGUUUU
3. AAGAAGCAAUAUUACGGGCG
4. GUUGAGCAAUAUUACGUCAU
5. UAAAAGCAAUAUUACGAGCG

1: -4.66; 2: -3.96; 3: -1.48; 4: -2.26; 5: -0.13

Value sought for every listed sequence: self-splicing fitness (ln).
1. GCAUAGCAAUAUUACGGGUA
2. CUUCAGCAAUAUUACGCAUC
3. GUCAAGCAAUAUUACGAGGG
4. AUCCAGCAAUAUUACGUGCG
5. CCCAAGCAAUAUUACGGGUG
6. AAAGAGCAAUAUUACGACCC
7. GCAGAGCAAUAUUACGACGU

1: -0.992; 2: -2.85; 3: -4.08; 4: -1.65; 5: -3.36; 6: -2.42; 7: -0.995

Recorded self-splicing fitness (ln) for `CAGUAGCAAUAUUACGGUCU` , please?
-3.35

Reference source for all entries: the supplement of paper PMC7877785
